testedOn: T1, recombinant human ErbB2 extracellular domain (ErbB2-ECD) (human, UniProt P04626 23-652)
T1 construct: extracellular domain; Coated on plates or used biotin-labeled in solution (capture ELISA); also called Human ErbB2-ECD; rhErbB2
test: capture ELISA, recombinant ErbB2-ECD
assayReadout: pEC50
Formally, pEC50 is defined as -log10 of the concentration c, with c in mol/L.

| binder | pEC50 |
| --- | --- |
| 5G9.v3 humanized antibody (antibody, V domains shown, VH.v1/VL.2, back mutations 0/G43V) VH: EVQLVQSGAEVKKPGSSVKVSCKTSGYTFSSYTIHWVRQAPGQGLEWIGYINPSSDYTAYNQKFRDRATLTADQSTNTAYMELSSLRSEDTAVYYCARASAFSLDFWGQGTLVTVSS VL: DIQMTQSPSSLSASVGDRVTITCKASHDIDRYIAWYQHKPGKVPKLLIHYTSTLQPGIPSRFSGSGSGRDYTLTISSLQPEDVATYYCLNYDNLLWTFGQGTKVEIK | 10.64 |
| 5G9.v8 humanized antibody (antibody, V domains shown, VH.1/VL.v1, back mutations A67V/0) VH: EVQLVQSGAEVKKPGSSVKVSCKTSGYTFSSYTIHWVRQAPGQGLEWIGYINPSSDYTAYNQKFRDRVTLTADQSTNTAYMELSSLRSEDTAVYYCARASAFSLDFWGQGTLVTVSS VL: DIQMTQSPSSLSASVGDRVTITCKASHDIDRYIAWYQHKPGKGPKLLIHYTSTLQPGIPSRFSGSGSGRDYTLTISSLQPEDVATYYCLNYDNLLWTFGQGTKVEIK | 9.78 |

Please examine the following record next.
Input: Suppose we examine the binder 5G9.v7 humanized antibody (antibody, V domains shown, VH.v1/VL.6, back mutations 0/Y71F) VH: EVQLVQSGAEVKKPGSSVKVSCKTSGYTFSSYTIHWVRQAPGQGLEWIGYINPSSDYTAYNQKFRDRATLTADQSTNTAYMELSSLRSEDTAVYYCARASAFSLDFWGQGTLVTVSS VL: DIQMTQSPSSLSASVGDRVTITCKASHDIDRYIAWYQHKPGKGPKLLIHYTSTLQPGIPSRFSGSGSGRDFTLTISSLQPEDVATYYCLNYDNLLWTFGQGTKVEIK ; what pEC50 value has been reported?
Output: 10.28
